target: T1, human PD-L1, full-length, on CHO cells (human, UniProt Q9NZQ7 19-290); assay: flow cytometry, CHO/PD-L1 cells; MFI relative to WT CD80 ECD-Fc
T1 construct: also called huPD-L1; CD274
T1 sequence (Q9NZQ7 19-290): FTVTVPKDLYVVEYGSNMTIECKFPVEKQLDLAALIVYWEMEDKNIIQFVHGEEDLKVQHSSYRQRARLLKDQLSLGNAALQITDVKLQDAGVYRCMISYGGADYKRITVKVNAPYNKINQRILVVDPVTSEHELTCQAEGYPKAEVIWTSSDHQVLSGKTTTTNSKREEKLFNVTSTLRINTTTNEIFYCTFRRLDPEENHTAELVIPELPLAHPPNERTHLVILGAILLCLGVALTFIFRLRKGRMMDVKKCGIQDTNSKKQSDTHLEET
measurement_kind: Fold change to WT CD80 (fold)
Dear colleague, please return just the value in fold, with no unit written.

// solved cases for Fold change to WT CD80 follow
| binder | quantity_unit | assay_result |
| --- | --- | --- |
| variant CD80 IgV-Fc M47V/K89N (Fc fusion, not shown: small tags and cut ends; a dimerising Fc or GST) VIHVTKEVKEVATLSCGHNVSVEELAQTRIYWQKEKKMVLTMMSGDVNIWPEYKNRTIFDITNNLSIVILALRPSDEGTYECVVLKYENDAFKREHLAEVTLSVKAD | fold | 4.9 |
| variant CD80 IgV-Fc E35D/D46V/M47L/V68M/L85Q (Fc fusion, not shown: small tags and cut ends; a dimerising Fc or GST) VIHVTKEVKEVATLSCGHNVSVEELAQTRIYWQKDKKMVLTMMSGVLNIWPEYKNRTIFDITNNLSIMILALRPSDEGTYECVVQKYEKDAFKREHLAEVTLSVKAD | fold | 222 |
| variant CD80 IgV-Fc E35D/D46V/L85Q (Fc fusion, not shown: small tags and cut ends; a dimerising Fc or GST) VIHVTKEVKEVATLSCGHNVSVEELAQTRIYWQKDKKMVLTMMSGVMNIWPEYKNRTIFDITNNLSIVILALRPSDEGTYECVVQKYEKDAFKREHLAEVTLSVKAD | fold | 31.6 |

Switching to the query record.
Lab book: Fold change to WT CD80 of variant CD80 IgV-Fc M47L (Fc fusion, not shown: small tags and cut ends; a dimerising Fc or GST) VIHVTKEVKEVATLSCGHNVSVEELAQTRIYWQKEKKMVLTMMSGDLNIWPEYKNRTIFDITNNLSIVILALRPSDEGTYECVVLKYEKDAFKREHLAEVTLSVKAD noted as 14.8

These entries and their values trace back to patent US20210130436A1.
